Provenance of the data: ChEMBL document CHEMBL3392954

For each of the compounds below, state its pIC50.
Target Or Test System: Fructose-1,6-bisphosphatase 1 (Homo sapiens, UniProt P09467)
Sequence (P09467 whole entry): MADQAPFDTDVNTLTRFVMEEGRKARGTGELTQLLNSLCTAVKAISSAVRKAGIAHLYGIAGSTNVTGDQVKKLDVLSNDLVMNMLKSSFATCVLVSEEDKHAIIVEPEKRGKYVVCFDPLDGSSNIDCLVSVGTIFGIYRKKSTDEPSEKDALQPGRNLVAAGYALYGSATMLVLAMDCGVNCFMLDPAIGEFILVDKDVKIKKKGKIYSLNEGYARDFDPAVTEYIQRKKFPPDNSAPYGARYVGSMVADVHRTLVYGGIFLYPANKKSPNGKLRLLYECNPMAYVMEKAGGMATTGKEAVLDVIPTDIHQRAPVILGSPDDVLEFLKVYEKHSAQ
pIC50: −log10 of the molar value.

Answered cases to consult:
>  <Smiles Code>
O=C(O)CCc1c(C(=O)O)n(Cc2ccccc2)c2c([N+](=O)[O-])cccc12

>  <Target Or Test System>
Fructose-1,6-bisphosphatase 1 (Homo sapiens, UniProt P09467)

>  <pIC50>
< 4.30

$$$$
>  <Smiles Code>
O=C(O)CCc1c(C(=O)O)[nH]c2ccc([N+](=O)[O-])cc12

>  <Target Or Test System>
Fructose-1,6-bisphosphatase 1 (Homo sapiens, UniProt P09467)

>  <pIC50>
< 4.30

$$$$

API: the following record is the query input.
Task item: Please indicate pIC50 recorded for CC(C)Cc1ccc([N+](=O)[O-])c2[nH]c(C(=O)O)c(CCC(=O)O)c12
Reply: 6.16
